System: human hepatoma Huh-7 cell line harboring a HCV replicon
Test: HCV replicon assay (inhibition of viral replication, luciferase readout)
Type: cell-based
Assay setup: Hepatitis C virus, 72 h, Huh-7 HCV replicon cells, 3 days incubation
For each record, write down the corresponding inhibition at 2 µM.
One number for each entry, in %.

Example entries begin here.
Molecule	Tested on	inhibition at 2 µM, %
CC(C)(C)C#Cc1cc(N(C(=O)[C@H]2CC[C@H](C)CC2)[C@H]2CC[C@@H](Oc3ccc(O)nn3)CC2)c(C(=O)O)s1	human hepatoma Huh-7 cell line harboring a HCV replicon	100
CC(C)(C)C#Cc1cc(N(C(=O)[C@H]2CC[C@H](C)CC2)[C@H]2CC[C@H](Oc3cc[nH]c(=O)n3)CC2)c(C(=O)O)s1	human hepatoma Huh-7 cell line harboring a HCV replicon	99.9
CN(C)c1ncc(S(=O)(=O)N2CCC(N(c3cc(C#CC(C)(C)C)sc3C(=O)O)C(=O)[C@H]3CC[C@H](C)CC3)CC2)cn1	human hepatoma Huh-7 cell line harboring a HCV replicon	99.1
CN(C)Cc1ccnc(O[C@H]2CC[C@H](N(c3cc(C#CC(C)(C)C(F)(F)F)sc3C(=O)O)C(=O)[C@H]3CC[C@H](C)CC3)CC2)c1	human hepatoma Huh-7 cell line harboring a HCV replicon	100
CC(C)(C)C#Cc1cc(N(C(=O)[C@H]2CC[C@H](C)CC2)[C@H]2CC[C@H](Oc3cccc(C(F)(F)F)n3)CC2)c(C(=O)O)s1	human hepatoma Huh-7 cell line harboring a HCV replicon	67.6

Could you now look at the following molecule, please?
Which measured inhibition at 2 µM belongs to CC1CCC(C(=O)N(c2cc(C#CC(C)(C)C)sc2C(=O)O)[C@H]2CC[C@H](Oc3cc(CN(C)CCO)ccn3)CC2)CC1 (stereo partly drawn) , tested on human hepatoma Huh-7 cell line harboring a HCV replicon?
100

// provenance: patent US8569302B2
